Data provenance: ChEMBL document CHEMBL3507680

cytotoxicity at 70.5 h overview
Assay: Human HepG2 cell viability assay in 384 well format
Format: toxicity, cell-based
Design: dose 125 nL, time 70.5 hour; concentration not given beside the values
Conditions: HepG2 cells, read-out: Inhibition
RESULT TYPE: cytotoxicity at 70.5 h (%)

[
  {
    "MOLECULE": "CC(O)(CNC(=O)NCCc1ccc2c(c1)CCO2)c1ccsc1 (centres undefined)",
    "TEST VALUE": 1.66
  },
  {
    "MOLECULE": "CCOc1ncccc1CNS(=O)(=O)c1ccc2c(c1)CCCC(=O)N2",
    "TEST VALUE": -4.49
  },
  {
    "MOLECULE": "CS(=O)(=O)N1CC[C@H]2O[C@H](C(=O)NCCc3ccccn3)CC[C@H]21",
    "TEST VALUE": -9.62
  },
  {
    "MOLECULE": "Cc1ncnc2c1CCN(C(=O)c1ccoc1)CC2",
    "TEST VALUE": -6.33
  },
  {
    "MOLECULE": "CN(C)Cc1noc2c1CN(Cc1ccsc1)CC2",
    "TEST VALUE": -5.59
  },
  {
    "MOLECULE": "CNC(=O)C1CC2(CCN(C(=O)c3csnn3)CC2)c2ccccc21 (centres undefined)",
    "TEST VALUE": 0.474
  },
  {
    "MOLECULE": "Cc1nc(C)n(C2CCCN(C(=O)CCc3ccncc3)C2)n1 (centres undefined)",
    "TEST VALUE": -0.318
  },
  {
    "MOLECULE": "Cc1ccccc1C(Nc1ncnc2c1CCNC2)c1ccccc1 (centres undefined)",
    "TEST VALUE": -1.58
  },
  {
    "MOLECULE": "Cc1ncccc1NC(=O)[C@H]1C[C@@H]2CCN(Cc3ccsc3)C[C@H]2O1",
    "TEST VALUE": -13.8
  }
]
